Measured values drawn from paper doi:10.1101/2020.04.16.045419 for this set.

molecular target: SARS-CoV-2 RBD construct consisting of residues Pro330-Gly526 fused to Venus YFP (RBD-vYFP) (SARS-CoV-2, UniProt P0DTC2)

binder | binding result
Sb#56 (VHH) VHH: QVQLVESGGGSVQAGGSLRLSCAASGNISQIHYLGWFRQAPGKEREGVAALNTDYGYTYYADSVKGRFTVSLDNAKNTVYLQMNSLKPEDTALYYCAAAYYFGDDIPLWWEAYSYWGQGTQVTVS | binds
Sb#25 (VHH) VHH: QVQLVESGGGLVQAGGSLRLSCAASGFPVHAWEMAWYRQAPGKEREWVAAIRSFGSSTHYADSVKGRFTISRDNAKNTVYLQMNSLKPEDTAVYYCNVKDFGTHHYAYDYWGQGTQVTVS | binds
Sb#5 (VHH) VHH: QVQLVESGGGLVQAGGSLRLSCAASGFPVFSGHMHWYRQAPGKEREWVAAILSNGDSTHYADSVKGRFTISRDNAKNTVYLQMNSLKPEDTAVYYCRVHVGAHYFGQGTQVTVS | binds
Sb#39 (VHH) VHH: QVQLVESGGGLVQAGGSLRLSCAASGFPVFHVWMEWYRQAPGKEREWVAAIDSAGWHTYYADSVKGRFTISRDNAKNTVYLQMNSLKPEDTAVYYCNVKDAGNTTSAYDYWGQGTQVTVS | binds
